TEST DESCRIPTION: α-Helicity by CD spectroscopy
Format: physicochemical
PROTOCOL CONDITIONS: PB pH 7.2, 10-50 µM peptide, 20°C, calculated from [θ]222
Positions of bridges follow the written chain, without caps; N, C: chain ends. Non-standard residues stand in square brackets, D forms with d. Residues, ends and D or L forms follow the SMILES beside them. S5 = C=CCCC[C@](C)(N)C(=O)O
Listed next: entries and their corresponding α-helicity (%).

| MOLECULE | UNIT NAME | α-helicity (%) |
| --- | --- | --- |
| CC(=O)N[C@H](C(=O)N[C@@H](CO)C(=O)N[C@@H](Cc1ccccc1)C(=O)N[C@@H](C)C(=O)N[C@@H](CCC(=O)O)C(=O)N[C@@H](Cc1ccc(O)cc1)C(=O)N[C@@H](Cc1c[nH]c2ccccc12)C(=O)N[C@@H](C)C(=O)N[C@@H](CC(C)C)C(=O)N[C@@H](CC(C)C)C(=O)N[C@@H](CO)C(=O)NCCOCCOCCOCCC(=O)N[C@@H](CC(C)C)C(=O)N[C@@H](C)C(=O)N1C[C@H](O)C[C@H]1C(=O)N[C@@H](Cc1ccc(O)cc1)C(=O)N[C@@H](CCC(C)C)C(=O)N1CCC[C@H]1C(N)=O)[C@@H](C)O | % | 17 |
| CC(=O)N[C@H](C(=O)N[C@@H](CO)C(=O)N[C@@H](Cc1ccccc1)C(=O)N[C@@]1(C)CCCC=CCCC[C@@](C)(C(=O)N[C@@H](CC(C)C)C(=O)N[C@@H](CC(C)C)C(=O)N[C@@H](CO)C(N)=O)NC(=O)[C@H](Cc2c[nH]c3ccccc23)NC(=O)[C@H](Cc2ccc(O)cc2)NC(=O)[C@H](CCC(=O)O)NC1=O)[C@@H](C)O [SPMI1] (Ac-TSF[S5]EYW[S5]LLS-NH2; staple 4-8) | % | 4 |
| CC(=O)N[C@H](C(=O)N[C@@H](CO)C(=O)N[C@@H](Cc1ccccc1)C(=O)N[C@@H](C)C(=O)N[C@@H](CCC(=O)O)C(=O)N[C@@H](Cc1ccc(O)cc1)C(=O)N[C@@H](Cc1c[nH]c2ccccc12)C(=O)N[C@@H](C)C(=O)N[C@@H](CC(C)C)C(=O)N[C@@H](CC(C)C)C(=O)N[C@@H](CO)C(=O)NCCOCCOCCC(=O)N[C@@H](CC(C)C)C(=O)N[C@@H](C)C(=O)N1C[C@H](O)C[C@H]1C(=O)N[C@@H](Cc1ccc(O)cc1)C(=O)N[C@@H](CCC(C)C)C(=O)N1CCC[C@H]1C(N)=O)[C@@H](C)O | % | 17 |
